Answer each item with its documented pKa.
Test: pKa value (acid dissociation index) of compound (A)

[ask] So what's the measured pKa for this one? Clc1cccnc1
[reply] 2.84

[ask] So what's the measured pKa for this one? CCCCCCCCN(CCCCCCCC)CCCCCCCC
[reply] 8.35

[ask] So what's the measured pKa for this one? Cc1cccc(C)n1
[reply] 6.6

[ask] So what's the measured pKa for this one? Cc1cc(C)nc(C)c1
[reply] 7.48

Cited source: patent US11845828B2
